EXPERIMENT SUMMARY: Highest frequency of moderate liver toxicity observed during clinical trials, expressed as a percentage. [column '% BIOL' in source]
MEASUREMENT SETUP: human
# note: boundary value 9% maps to NOT MET; Hepatotoxicity (moderate) below it maps to MET

molecule="COc1cccc(OC)c1C(=O)N[C@@H]1C(=O)N2[C@@H]1SC(C)(C)[C@@H]2C(=O)O [METHICILLIN]" category_label="NOT MET"
molecule="CO/N=C(\\C(=O)N[C@@H]1C(=O)N2C(C(=O)[O-])=C(C[n+]3cccc4c3CCC4)CS[C@H]12)c1csc(N)n1 [CEFPIROME]" category_label="NOT MET"
molecule="Clc1ccc2c(c1)C(N1CCNCC1)=Nc1ccccc1O2 [AMOXAPINE]" category_label=MET

Next molecule, please.
Request: # check: Hepatotoxicity (moderate) < 9% for NC(=O)NC(=O)Cc1ccccc1 [PHENACEMIDE]
Response: MET
